tested on: HOP-62 multicell spheroids with HUVEC/MSC, viability; assay: Anticancer human tumor HOP-62 cell line growth inhibition [KRAS2]; settings: second compound 0.316 µM; first compound 0.316 µM; active compounds read low;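 further: viability read after a week of compound exposure; 100% = DMSO vehicle-treated spheroids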
measure-name: viability, T/C (%)
Give just the number in %; leave the unit off.

Cn1nccc1Nc1nccc(-c2cc3c(s2)C(C)(C)N(CCN2CCOCC2)C3=O)n1 + CC1OCC2(CCN(c3cnc(Sc4ccnc(N)c4Cl)c(N)n3)CC2)C1N	51.8
COc1cc2nccc(Oc3ccc(NC(=O)C4(C(=O)Nc5ccc(F)cc5)CC4)cc3)c2cc1OC + COc1cc2nc(C)nc(NC(C)c3cc(N)cc(C(F)(F)F)c3)c2cc1OC1CCOC1	126
O=C(c1cc(Cc2n[nH]c(=O)c3ccccc23)ccc1F)N1CCN(C(=O)C2CC2)CC1 + C=CC(=O)N1CCN(c2nc(=O)n(-c3c(C)ccnc3C(C)C)c3nc(-c4c(O)cccc4F)c(F)cc23)C(C)C1	45.5

We now examine a further compound.
# viability, T/C (compound: CC1(C)CCC(CN2CCN(c3ccc(C(=O)NS(=O)(=O)c4ccc(NCC5CCOCC5)c([N+](=O)[O-])c4)c(Oc4cnc5[nH]ccc5c4)c3)CC2)=C(c2ccc(Cl)cc2)C1 + CC1OCC2(CCN(c3cnc(Sc4ccnc(N)c4Cl)c(N)n3)CC2)C1N ) is 68.3
